src = patent US9067937B2

Biological target: UniProt Q14680
Assay: Kinase assay (IMAP fluorescence polarization, FITC-labeled histone H3 peptide)
Assay type: biochemical
Conditions: 50 micro-M ATP
Where a name gives a salt, the structure may show the parent alone.
Catalogue of IC50 values
Provide only the numeric value, understood in µM.

MOLECULE	IC50 / µM
CN(C)C[C@H]1CC[C@H](Nc2c(C(=O)C3CCC3)cnc3ccc(-c4cc(F)c(O)c(Cl)c4)nc23)CC1 [Example 212, dihydrochloride]	0.0016
CC(=O)c1cnc2ccc(-c3cc(Cl)c(O)c(Cl)c3)nc2c1N[C@H]1CC[C@H](CN2CCN(C)CC2)CC1 [Example 63, trihydrochloride]	0.0008
CC(=O)c1cnc2ccc(-c3cc(F)c(O)c(Cl)c3)nc2c1Nc1ccc(N2CCC(N(C)C)C2)nc1 (stereo not shown) [Example 52, trihydrochloride]	0.027
COc1cc(-c2ccc3ncc(S(C)(=O)=O)c(Nc4ccc(OCCN(C)C)nc4)c3n2)cc(Cl)c1O [Example 26, dihydrochloride]	0.01
CC(=O)c1cnc2ccc(-c3cc(Cl)c(O)c(Cl)c3)nc2c1Nc1cnn(C2CCN(C)CC2)c1 [Example 33, dihydrochloride]	0.0078

Kindly review the next molecule as well.
### Prompt Please look at this molecule and report its IC50: CN(C)CCOc1ccc(Nc2c(S(C)(=O)=O)cnc3ccc(-c4cc(Cl)c(O)c(Cl)c4)nc23)cn1 [Example 24, hydrochloride]
### Response 0.0053

----------
Target: MELK (Homo sapiens, UniProt Q14680)
Sequence (Q14680 whole entry, looked up): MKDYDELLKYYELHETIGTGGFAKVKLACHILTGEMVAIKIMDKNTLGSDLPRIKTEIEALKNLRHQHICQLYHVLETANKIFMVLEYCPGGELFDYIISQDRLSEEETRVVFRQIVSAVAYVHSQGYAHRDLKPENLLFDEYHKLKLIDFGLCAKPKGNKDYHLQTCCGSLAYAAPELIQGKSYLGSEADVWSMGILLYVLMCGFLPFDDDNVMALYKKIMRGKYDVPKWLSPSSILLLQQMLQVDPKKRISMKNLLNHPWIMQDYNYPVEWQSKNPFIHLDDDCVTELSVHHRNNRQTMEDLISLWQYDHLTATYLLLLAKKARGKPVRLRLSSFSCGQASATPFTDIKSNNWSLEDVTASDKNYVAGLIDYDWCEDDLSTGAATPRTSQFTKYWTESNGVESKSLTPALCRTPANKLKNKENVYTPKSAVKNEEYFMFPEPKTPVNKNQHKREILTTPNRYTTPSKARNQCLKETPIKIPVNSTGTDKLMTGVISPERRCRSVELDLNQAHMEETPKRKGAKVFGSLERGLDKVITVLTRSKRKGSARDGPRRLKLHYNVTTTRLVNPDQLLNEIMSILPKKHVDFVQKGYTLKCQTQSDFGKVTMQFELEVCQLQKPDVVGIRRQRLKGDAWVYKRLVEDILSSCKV
Assay: Kinase assay (IMAP fluorescence polarization, FITC-labeled histone H3 peptide)
Assay type: biochemical
Settings: 50 micro-M ATP
Structures can show the parent of a compound that is named as a salt.
READOUT TYPE: IC50 (µM)
Note: unit µM is implicit; provide only the numeric part.

Below are worked cases with known answers.
COMPOUND	ASSAY TARGET	READOUT TYPE	ASSAY VALUE
CCC(=O)c1cnc2ccc(-c3cc(Cl)c(O)c(Cl)c3)nc2c1N[C@H]1CC[C@H](CN(C)C)CC1 [Example 206, dihydrochloride]	MELK (Homo sapiens, UniProt Q14680)	IC50	0.0013
CC(=O)c1cnc2ccc(-c3cc(Cl)c(O)c(Cl)c3)nc2c1N1CCC(CCN2CCCC2)CC1 [Example 36, dihydrochloride]	MELK (Homo sapiens, UniProt Q14680)	IC50	0.0021
CNC1CCN(c2ccc(Nc3c(C(C)=O)cnc4ccc(-c5cc(F)c(O)c(Cl)c5)nc34)cn2)C1 (stereo not shown) [Example 54, trihydrochloride]	MELK (Homo sapiens, UniProt Q14680)	IC50	0.012

# input for lookup
### Prompt Enter recorded IC50 with MELK (Homo sapiens, UniProt Q14680) for CC(=O)c1cnc2ccc(-c3cc(Cl)c(O)c(Cl)c3)nc2c1Nc1ccc(N2CCCC(N)C2)nc1 (stereo not shown) [Example 64, trihydrochloride] here.
### Response 0.0012

----------
Target: MELK (Homo sapiens, UniProt Q14680)
Test: Kinase assay (IMAP fluorescence polarization, FITC-labeled histone H3 peptide)
Assay type: biochemical
Conditions: 50 micro-M ATP
Where a name gives a salt, the structure may show the parent alone.
READOUT TYPE: log10 of IC50 (log10 of the value in µM)
Kindly note that the scale is log10 and the underlying IC50 is in µM.

Example compounds with recorded log10 of IC50:
COMPOUND	log10 of IC50
CC(=O)c1cnc2ccc(-c3cc(F)c(O)c(Cl)c3)nc2c1Nc1cccc(CCN2CCCC2)c1 [Example 20, dihydrochloride]	-0.85
CC(C)C(=O)c1cnc2ccc(-c3cc(F)c(O)c(Cl)c3)nc2c1N[C@H]1CC[C@H](CN(C)C)CC1 [Example 217, dihydrochloride]	-2.74
CN(C)[C@H]1CC[C@H](Nc2c(C(=O)C3CC3)cnc3ccc(-c4cc(Cl)c(O)c(Cl)c4)nc23)CC1 [Example 80, dihydrochloride]	-3.22
CC(=O)c1cnc2ccc(-c3cc(F)c(O)c(Cl)c3)nc2c1Nc1ccc(CN2CCN(C)CC2)cc1 [Example 35, trihydrochloride]	-1.43
CC(=O)c1cnc2ccc(-c3cc(F)c(O)c(Cl)c3)nc2c1N[C@H]1CC[C@H](NC(=O)C(N)C(C)C)CC1 (stereo partly drawn) [Example 69, dihydrochloride]	-2.92

Please find the next compound below.
### Prompt Supply measured log10 of IC50 of CC(=O)c1cnc2ccc(-c3cc(F)c(O)c(Cl)c3)nc2c1Nc1ccc(NCCN(C)C)nc1 [Example 39, trihydrochloride] in your reply.
### Response -1.52
